Source listed as ChEMBL document CHEMBL5625263.

# Assay comment: Solubility of the compound
# Type: physicochemical
Endpoint: solubility (µM)

Consider the worked cases shown below.
CC1CCCOc2nc(ccc2C(N)=O)-n2c(=O)[nH]c3nccc(c32)O1 (configuration not stated) :: 300
CC1CCn2ccc(=O)c3cc(F)c(nc32)-n2c(=O)[nH]c3nccc(c32)O1 (configuration not stated) :: 274

[a] CC1CCCOc2ccnc3[nH]c(=O)n(c23)-c2ccc3c(=O)ccn1c3n2 (configuration not stated)
[b] CC1CCC(C)n2ccc(=O)c3ccc(nc32)-n2c(=O)[nH]c3nccc(c32)O1 (configuration not stated)
[c] CC1(C)NC(=O)c2ccc3nc2N1CCCOc1ccnc2[nH]c(=O)n-3c12
[d] CC1CCCOc2ccnc3[nH]c(=O)n(c23)-c2cccc(n2)O1 (configuration not stated)
[e] C[C@H](c1ccccc1)N1c2cc(-n3c(=O)[nH]c4ncccc43)ccc2C(=O)NC1(C)C
[ask] Task field, ranking: reported solubility, descending order. Submit the labels in the order that the ranking request calls for.
[reply] a, d, b, e, c

* * *

Measured IC50 values are reported for all entries that follow.
# Assayed system: Protein kinase C theta type (Homo sapiens, UniProt Q04759)
# Sequence (Q04759 whole entry): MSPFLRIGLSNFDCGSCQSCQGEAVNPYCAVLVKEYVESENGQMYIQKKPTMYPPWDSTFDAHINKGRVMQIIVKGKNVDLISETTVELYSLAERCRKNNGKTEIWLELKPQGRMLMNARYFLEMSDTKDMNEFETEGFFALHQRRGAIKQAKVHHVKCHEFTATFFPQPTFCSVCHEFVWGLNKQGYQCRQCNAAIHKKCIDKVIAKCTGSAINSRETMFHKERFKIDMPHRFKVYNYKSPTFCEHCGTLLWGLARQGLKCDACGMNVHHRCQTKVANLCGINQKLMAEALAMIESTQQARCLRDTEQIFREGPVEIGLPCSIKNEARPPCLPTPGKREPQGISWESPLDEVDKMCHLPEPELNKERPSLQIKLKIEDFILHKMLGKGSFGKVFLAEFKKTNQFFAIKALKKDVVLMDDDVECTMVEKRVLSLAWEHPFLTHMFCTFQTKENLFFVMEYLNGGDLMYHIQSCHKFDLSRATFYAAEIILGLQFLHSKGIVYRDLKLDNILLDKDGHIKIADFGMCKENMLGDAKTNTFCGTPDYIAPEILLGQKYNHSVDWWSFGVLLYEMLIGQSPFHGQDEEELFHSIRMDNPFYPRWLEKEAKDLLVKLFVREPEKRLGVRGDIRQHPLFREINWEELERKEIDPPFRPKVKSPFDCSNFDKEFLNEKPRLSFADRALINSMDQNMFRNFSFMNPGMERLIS
# Assay comment: Inhibition of PKC theta (unknown origin) in presence of ATP at Km

Consider the worked cases shown below.
CC1CCCOc2ccnc3[nH]c(=O)n(c23)-c2ccc3c(=O)ccn1c3n2 (stereo unspecified) :: < 0.5 nM
CC1CCn2ccc(=O)c3cc(F)c(nc32)-n2c(=O)[nH]c3nccc(c32)O1 (stereo unspecified) :: < 0.5 nM
CC1CC(C)Oc2ccnc3[nH]c(=O)n(c23)-c2cccc(n2)O1 (stereo unspecified) :: 2 nM

// field: IC50; key: CC1CCN(C)c2ccnc3cc(F)c(nc23)-n2c(=O)[nH]c3nccc(c32)O1 (stereo unspecified) ; value = < 0.5 nM

// field: IC50; key: CC1CCN(C)c2ccnc3ccc(nc23)-n2c(=O)[nH]c3nccc(c32)O1 (stereo unspecified) ; value = < 0.5 nM

// field: IC50; key: `O=c1[nH]c2nccc3c2n1-c1cccc(n1)OCCCCO3` ; value = 9.2 nM

* * *

Measured hepatocyte CLint values are reported for all entries that follow.
# Assay comment: Metabolic stability in human hepatocytes assessed as intrinsic clearance measured per 10^6 cells
# Format: ADME, cell-based, Hepatocyte
# Condition label: read-out: CLH

CC1CCN(C)c2ccnc3ccc(nc23)-n2c(=O)[nH]c3nccc(c32)O1 (stereo not given) :: < 4 µL/min/1e6 cells
CC1CCC(C)Oc2ccnc3[nH]c(=O)n(c23)-c2nc(c(C(N)=O)cc2F)O1 (stereo not given) :: < 4 µL/min/1e6 cells
CN1CCCCOc2ccnc3[nH]c(=O)n(c23)-c2cc1ccc2Cl :: < 1 µL/min/1e6 cells
CC1CCCn2ccc(=O)c3ccc(nc32)-n2c(=O)[nH]c3nccc(c32)O1 (stereo not given) :: < 4 µL/min/1e6 cells

// below: hepatocyte CLint requested for another compound
// field: hepatocyte CLint; key: CC1CCC(C)n2ccc(=O)c3cc(F)c(nc32)-n2c(=O)[nH]c3nccc(c32)O1 (stereo not given) ; value = < 4 µL/min/1e6 cells

* * *

# Assayed system: Protein kinase C alpha type (Homo sapiens)
# Assay comment: Inhibition of PKC alpha (unknown origin) in presence of 1 mM ATP
Endpoint: IC50 (nM)

CC1CCCOc2ccnc3[nH]c(=O)n(c23)-c2ccc3c(=O)ccn1c3n2 (centres undefined) :: 679
CC1CCC(C)n2ccc(=O)c3ccc(nc32)-n2c(=O)[nH]c3nccc(c32)O1 (centres undefined) :: 790
CC1CCN(C)c2ccnc3ccc(nc23)-n2c(=O)[nH]c3nccc(c32)O1 (centres undefined) :: 940
CC1CCC(C)c2ccnc3ccc(nc23)-n2c(=O)[nH]c3nccc(c32)O1 (centres undefined) :: 840
